biological target: Inward rectifier potassium channel 2 (Mus musculus) (UniProt P35561); experiment: inhibition of Kir2.1 inward rectifier potassium flux – cell-based, FluxOR thallium flux, duplicate, confirmation (AID 2032); conditions: Kir2.1-expressing cells, FluxOR thallium flux fluorescence, at 10 µM
Sequence (P35561 whole entry, looked up): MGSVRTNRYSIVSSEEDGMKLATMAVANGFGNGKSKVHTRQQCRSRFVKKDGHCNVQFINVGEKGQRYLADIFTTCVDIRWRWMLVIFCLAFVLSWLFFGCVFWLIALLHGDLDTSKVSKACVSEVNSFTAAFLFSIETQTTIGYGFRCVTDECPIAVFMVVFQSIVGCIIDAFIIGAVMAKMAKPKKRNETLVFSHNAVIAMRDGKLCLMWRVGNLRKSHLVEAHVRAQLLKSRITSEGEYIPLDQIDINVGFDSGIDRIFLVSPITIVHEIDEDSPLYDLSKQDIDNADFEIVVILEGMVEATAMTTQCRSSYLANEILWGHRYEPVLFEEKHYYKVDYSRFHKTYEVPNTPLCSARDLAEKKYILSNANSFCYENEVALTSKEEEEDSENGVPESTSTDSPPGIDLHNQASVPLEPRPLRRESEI
The other results are listed elsewhere or left out. Active and inactive are the calls of the source.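 How the source made its calls: active means Primary-screen hit whose thallium flux fell at least 3 control SD below untreated wells in both duplicates, with normal baseline fluorescence; inactive means the rest.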
Would you mind answering with one of these outcomes? active, inactive

Observe how each entry below is paired with its result.
C=CCNC(=S)/N=c1/ccccn1Cc1ccccc1: active
CCn1c(O)c(N=NC2=NC(=O)CS2)c2cc(C)ccc21: inactive
CN(Cc1ccccc1)CC(O)COc1ccc(CNCc2cc3ccccc3s2)cc1 (configuration not stated): active
Cn1c(SCC(=O)N2CCCc3ccccc32)nc2ccccc2c1=O: active
N#Cc1c(-c2ccccc2)nc(SCc2cccc(C(F)(F)F)c2)[nH]c1=O: inactive
CCCc1cc(=O)[nH]c(SCC(=O)c2cc(C)n(CCC)c2C)n1: active

Next item in the queue.
## Input Fill in: this test's call for CCCn1c(C2CCCN2c2nc(-c3ccc(C)cc3)cs2)nc2cc(Cl)c(N3CCCCC3)cc21 (configuration not stated) is ___
## Output inactive

###

assay: nonspecific potentiation of DAMGO calcium response – cell-based, HEK293 mu-opioid receptor line, counter-screen for TRPC4 allosteric potentiator project, confirmation (AID 449724); conditions: HEK293 mu-opioid receptor cells, Fluo-4 calcium flux, at 10 µM, compound added before EC20 DAMGO stimulus;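 further: HEK293 cells carrying mu-opioid receptor only with no TRPC4 channel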
The source made the active and inactive calls.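 The calls were made as follows: active = calcium signal rise more than 3 SD above the low-dose agonist control mean, in both duplicate plates and the primary screen; inactive = the rest.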
Would you mind answering with one of these outcomes? active, inactive

c1ccc(-c2nc(NCc3cccnc3)c3ccccc3n2)cc1: inactive
COc1ccc(Cc2noc(CN(C)CC3CCN(Cc4ccccc4)CC3)n2)cc1OC: inactive
COc1cccc(N2CC(O)=C(c3nc4ccccc4c(=O)[nH]3)C2=N)c1: inactive
NC(=S)N/N=C1/CCSc2ccc3ccccc3c21: inactive

## Input Fill in: this test's call for Brc1ccc(N/N=C(/N=Nc2nn[nH]n2)c2ccccc2)cc1 is ___
## Output inactive

## Input Now this one: c1ccc(-c2ccccc2OCCOCCN2CCCCC2)cc1
## Output inactive

## Input Now this one: CCCN(CCC)CCCNC(=O)c1ccc2c(Cl)c3c(nc2c1)CCC3
## Output inactive

## Input Now this one: CC(=NCCN1CCN(C(C)=C2C(=O)c3ccccc3C2=O)CC1)C1=C(O)CC(C)(C)CC1=O
## Output inactive

## Input Now this one: O=C(Nc1ccccc1)C1=C[C@H](C2CCCCC2)C[C@H](OCc2ccc(CO)cc2)O1
## Output inactive

## Input Now this one: Cc1ccc(OCCn2c(C)nc3ccccc32)cc1
## Output inactive

## Input Now this one: CCOC(=O)CSc1nc2c(sc(=S)n2Cc2ccco2)c(=O)n1-c1ccccc1
## Output inactive

## Input Now this one: O=C(CSc1nnc(-c2ccccc2)o1)c1ccc2c(c1)OCCO2
## Output inactive

## Input Now this one: Cc1cc(Cl)ccc1OC(C)C(=O)Nc1ccccc1N1CCOCC1 (configuration not stated)
## Output active

## Input Now this one: CCN(CC)CCn1c2ccccc2c2cnc(N)c(C#N)c21
## Output inactive

## Input Now this one: O=C(C[n+]1cccc(CNC(=O)c2ccc(OC(F)F)cc2)c1)Nc1ccc(SC(F)F)cc1
## Output inactive

## Input Now this one: Cc1ccc(C(=O)Nc2ccccc2C(=O)N2CC3(C)CC2CC(C)(C)C3)cc1 (configuration not stated)
## Output inactive

## Input Now this one: CCN1CCN(Cc2nc3c(c(=O)[nH]c(=O)n3C)n2Cc2ccccc2Cl)CC1
## Output inactive

## Input Now this one: CCN(C(=O)c1cc2c(s1)-c1ccccc1OC2)c1cc(OC)ccc1OC
## Output inactive

## Input Now this one: Cc1ccc(CNC(=O)C2CCCN(Cc3cnn(-c4ccccc4)c3-n3cccc3)C2)cc1 (configuration not stated)
## Output inactive

## Input Now this one: COc1ccccc1N1CCN(c2ncc(C(=O)N3CCN(c4cccc(Cl)c4)CC3)c3ccccc23)CC1
## Output inactive
